test: pKa measurement of the cationic lipid (TNS fluorescence vs pH); type: physicochemical; settings: probe TNS (fluorescent probe), Table 4; pKa of the cationic lipid of formula (I)
observable: pKa
Numbers only.

# count of solved cases: 2
CCCCC/C=C\C/C=C\CCCCCCCC(=O)OCCCCCCCCOc1cc(CN(C)C)cc(OCCCCCCCCOC(=O)CCCCCCC/C=C\C/C=C\CCCCC)c1 [Example 46]
6.18
CCCCCCCC(=O)OCCCCCCCCCC(=O)OCc1cc(COC(=O)CCCCCCCCCOC(=O)CCCCCCC)cc(CN(C)C)c1 [Example 86]
5.84

Please give pKa for each item listed below.
1. CCCCCCCC(=O)OCCCCCCOc1cc(CN(C)C)cc(OCCCCCCOC(=O)CCCCCCC)c1 [Example 48]
2. CCCCC/C=C\C/C=C\CCCCCCCC(=O)OCCCOc1cc(CN(C)C)cc(OCCCOC(=O)CCCCCCC/C=C\C/C=C\CCCCC)c1 [Example 39]

Result:
1. 5.93
2. 5.91

Hi, could you look up pKa for each item in my list?
1. CCCCCCCCCOC(=O)OCCCCCC(=O)OCc1cc(COC(=O)CCCCCOC(=O)OCCCCCCCCC)cc(CN(C)C)c1 [Example 106]
2. CCCCC/C=C\C/C=C\CCCCCCCC(=O)OCCCCOc1cc(CN(C)C)cc(OCCCCOC(=O)CCCCCCC/C=C\CCCCCCCC)c1 [Example 63]
3. CCCCCCCCCCOC(=O)CCCCCCCOc1cc(CN(C)C)cc(OCCCCCCCC(=O)OCCCCCCCCCC)c1 [Example 57]

Result:
6.04
5.92
5.94

---

test: Particle size of the lipid nanoparticle (dynamic light scattering, Malvern Zetasizer); assay type: physicochemical; conditions: Table 4; FVII siRNA LNP; Chol/DSPC/stealth lipid S010, molar ratio 45/44/9/2; Z-average
Provide the reported Size (nm) of each item.
Numbers only, in nm.

CCCCCCCCCCCCC(=O)OCc1cc(COC(=O)CCCCCCCCCCCC)cc(CN(C)C)c1
113.8

Hi, could you look up Size (nm) for each item in my list?
1. CCCCCCCCCOC(=O)OCCCCCC(=O)OCc1cc(COC(=O)CCCCCOC(=O)OCCCCCCCCC)cc(CN(C)C)c1
2. CCCCCCCCCCCCCC(=O)OCCCCOc1cc(CN(C)C)cc(OCCCCOC(=O)CCCCCCCCCCCCC)c1
3. CCCCC/C=C\C/C=C\CCCCCCCC(=O)OCCOc1cc(CN(C)C)cc(OCCOC(=O)CCCCCCC/C=C\C/C=C\CCCCC)c1
4. CCCCCCCCCC(=O)OCCCC(=O)OCCCOc1cc(CN(C)C)cc(OCCCOC(=O)CCCOC(=O)CCCCCCCCC)c1
5. CCCCCCCC(=O)OCC(CCCCOc1cc(CN(C)C)cc(OCCCCC(COC(=O)CCCCCCC)COC(=O)CCCCCCC)c1)COC(=O)CCCCCCC
6. CCCCCC(=O)OCCCCCCCCCCOc1cc(CN(C)C)cc(OCCCCCCCCCCOC(=O)CCCCC)c1

Result:
[149.3, 81.79, 94.28, 197.3, 183.3, 172.9]

---

experiment: Polydispersity index (PDI) of the lipid nanoparticle (dynamic light scattering); assay type: physicochemical; settings: Table 4; FVII siRNA LNP; Chol/DSPC/stealth lipid S010, 45/44/9/2
Please note: satisfied applies when PDI is 0.08 or greater, and not satisfied applies otherwise.

Check out these entries, answers already filled in.
CCCCCCCC(=O)OCCCCCCCCOc1cc(CN(C)C)cc(OCCCCCCCCOC(=O)CCCCCCC)c1 [Example 42]
satisfied
CCCCC/C=C\C/C=C\CCCCCCCC(=O)OCCCCOc1cc(CN(C)C)cc(OCCCCOC(=O)CCCCCCC/C=C\C/C=C\CCCCC)c1 [Example 38]
not satisfied
CCCCCCCCCC(=O)OCCCCCCCCOc1cc(CN(C)C)cc(OCCCCCCCCOC(=O)CCCCCCCCC)c1 [Example 52]
not satisfied
CCCCCCCCCC(=O)OCCCCCC(=O)OCc1cc(COC(=O)CCCCCOC(=O)CCCCCCCCC)cc(CN(C)C)c1 [Example 88]
not satisfied

Now look at this one.
Request: Exam item: decide whether the reported PDI for CCCCCC(=O)OCCCCCCCCOc1cc(CN(C)C)cc(OCCCCCCCCOC(=O)CCCCC)c1 [Example 41] is at least 0.08.
Result: satisfied

FYI, the data here is from patent US9504747B2.
